Quick list: interaction score per entry.
Biological target: T1, 4H4001-bA
T1 chain: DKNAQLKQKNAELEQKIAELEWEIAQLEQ
Assay: two-hybrid library CCNG1;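 note: natural log of median RNA to DNA barcode read ratio; higher means stronger binding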

Binder: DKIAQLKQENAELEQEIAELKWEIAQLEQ [4H2697-bA]
Result: -0.951

I'd like to know its interaction score. The binder in question is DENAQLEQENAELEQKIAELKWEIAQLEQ [4H1193-bA] 0.926

I'd like to know its interaction score. The binder in question is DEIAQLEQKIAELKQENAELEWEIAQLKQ [4H338-bA] 0.217

I'd like to know its interaction score. The binder in question is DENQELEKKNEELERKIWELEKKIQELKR [4H1446-bH] 2.32

I'd like to know its interaction score. The binder in question is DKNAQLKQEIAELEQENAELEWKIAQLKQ [4H3606-bA] -0.523

I'd like to know its interaction score. The binder in question is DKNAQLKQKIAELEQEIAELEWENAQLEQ [4H3843-bA] -0.268

I'd like to know its interaction score. The binder in question is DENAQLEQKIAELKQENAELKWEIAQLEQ [4H1369-bA] -0.513

I'd like to know its interaction score. The binder in question is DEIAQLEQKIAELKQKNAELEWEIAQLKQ [4H370-bA] -0.375

I'd like to know its interaction score. The binder in question is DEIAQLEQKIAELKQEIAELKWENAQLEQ [4H331-bA] 0.0797

I'd like to know its interaction score. The binder in question is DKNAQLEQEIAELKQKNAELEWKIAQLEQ [4H3189-bA] -0.765

I'd like to know its interaction score. The binder in question is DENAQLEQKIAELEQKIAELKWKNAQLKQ [4H1328-bA] 1.48
